TESTED_SYSTEM: OCT3 (Homo sapiens)
Construct: expressed in transfected cells; host or cells: HEK293
Sequence (O75751 whole entry): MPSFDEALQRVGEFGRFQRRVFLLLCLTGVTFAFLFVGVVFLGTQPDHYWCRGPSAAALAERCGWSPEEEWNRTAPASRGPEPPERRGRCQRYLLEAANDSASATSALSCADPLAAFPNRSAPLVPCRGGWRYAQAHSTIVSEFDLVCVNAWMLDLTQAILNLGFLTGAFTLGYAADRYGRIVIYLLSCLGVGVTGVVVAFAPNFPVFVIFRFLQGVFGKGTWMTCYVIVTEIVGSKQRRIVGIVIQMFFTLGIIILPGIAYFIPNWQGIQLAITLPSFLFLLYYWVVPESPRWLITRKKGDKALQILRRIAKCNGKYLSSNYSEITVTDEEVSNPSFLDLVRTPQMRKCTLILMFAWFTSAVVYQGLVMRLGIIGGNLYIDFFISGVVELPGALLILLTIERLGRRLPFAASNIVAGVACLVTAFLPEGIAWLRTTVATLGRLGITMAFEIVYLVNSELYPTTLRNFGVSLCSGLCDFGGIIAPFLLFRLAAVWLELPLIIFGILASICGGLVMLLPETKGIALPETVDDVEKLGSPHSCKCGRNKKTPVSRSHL
ASSAY_PROCEDURE: Inhibition of model substrate uptake in OCT3-overexpressing HEK293 cells
Assay type: cell-based
RUN_CONDITIONS: OCT3; 20 μM inhibitor, 2 μM (S)-zolmitriptan, 5 min
RECORDED_METRIC: (S)-Zolmitriptan inhibition [%] (%)

> print(dat)
                                   molecule        tested.system                  recorded.metric  observed.result
1  NC[C@H](O)c1ccc(O)c(O)c1 [(R)-Norepinephrine]  OCT3 (Homo sapiens)  (S)-Zolmitriptan inhibition [%]             -4.3
2  NC[C@@H](O)c1ccc(O)c(O)c1 [(S)-Norepinephrine]  OCT3 (Homo sapiens)  (S)-Zolmitriptan inhibition [%]             -6.6
3  OC[C@@H](O)CN1CCN(c2ccccc2)CC1 [(S)-Dropropizine]  OCT3 (Homo sapiens)  (S)-Zolmitriptan inhibition [%]            -17.1
4  CCN(CC)CC#CCOC(=O)[C@](O)(c1ccccc1)C1CCCCC1 [(R)-Oxybutynine]  OCT3 (Homo sapiens)  (S)-Zolmitriptan inhibition [%]             42.2
5  CC(C)(C)NC[C@H](O)c1ccc(O)c(CO)c1 [(R)-Salbutamol]  OCT3 (Homo sapiens)  (S)-Zolmitriptan inhibition [%]             -6.4
6  O=C(OC1C[N+]2(CCCOc3ccccc3)CCC1CC2)C(O)(c1cccs1)c1cccs1 [(S)-Aclidinium]  OCT3 (Homo sapiens)  (S)-Zolmitriptan inhibition [%]             53.3
7  CNCC[C@H](Oc1ccccc1C)c1ccccc1 [(S)-Tomoxetine]  OCT3 (Homo sapiens)  (S)-Zolmitriptan inhibition [%]             21.1
8  CCN(CC)CC#CCOC(=O)[C@@](O)(c1ccccc1)C1CCCCC1 [(S)-Oxybutynine]  OCT3 (Homo sapiens)  (S)-Zolmitriptan inhibition [%]             65.2
9  CCN1CCC[C@H]1CNC(=O)c1cc(S(=O)(=O)CC)c(N)cc1OC [(S)-Amisulpride]  OCT3 (Homo sapiens)  (S)-Zolmitriptan inhibition [%]             46.0
